Biological target: ER-α (Homo sapiens, UniProt P03372)
Construct: endogenous in cells; host or cells: MCF-7
Sequence (P03372 1-595): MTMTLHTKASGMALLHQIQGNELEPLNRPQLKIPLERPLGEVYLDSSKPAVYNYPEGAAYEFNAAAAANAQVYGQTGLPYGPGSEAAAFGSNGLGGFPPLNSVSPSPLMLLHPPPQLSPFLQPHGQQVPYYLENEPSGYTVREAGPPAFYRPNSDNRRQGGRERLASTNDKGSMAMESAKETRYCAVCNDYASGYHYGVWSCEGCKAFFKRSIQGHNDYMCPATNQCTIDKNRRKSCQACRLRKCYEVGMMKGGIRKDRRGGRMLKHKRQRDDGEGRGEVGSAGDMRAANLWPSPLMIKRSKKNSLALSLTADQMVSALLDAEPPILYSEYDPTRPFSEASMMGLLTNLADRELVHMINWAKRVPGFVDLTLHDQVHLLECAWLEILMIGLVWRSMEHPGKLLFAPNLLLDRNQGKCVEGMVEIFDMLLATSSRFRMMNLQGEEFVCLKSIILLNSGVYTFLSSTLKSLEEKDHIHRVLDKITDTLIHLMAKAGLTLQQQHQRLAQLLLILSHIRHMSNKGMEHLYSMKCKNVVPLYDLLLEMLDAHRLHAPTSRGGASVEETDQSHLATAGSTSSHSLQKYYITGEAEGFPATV
Test: ER-α In Cell Western Assay (ER1D5)
Assay type: cell-based
Conditions: MCF7; MCF-7 cells, ER1D5 antibody, 4 or 24 hr post compound addition; read-out: ER In-Cell Western Assay (ER1D5); Max Response
ATTRIBUTE MEASURED: Emax

Use these answered entries as a reference point.
COMPOUND	OBSERVED VALUE
CC1=C(c2cccc(O)c2)C(c2ccc(OCCn3cccc3)cc2)Oc2ccc(O)cc21 (stereo not shown) [Example 14]	40 to 65%
CC1=C(c2cccc(O)c2)[C@@H](c2ccc(OC[C@H](C)N3CC[C@@H](C)C3)cc2)Oc2ccc(O)cc21 (single isomer, unassigned) [Example 2b]	≥ 65%
CC1=C(c2cccc(O)c2)C(c2ccc(OC[C@H](C)N3CCC3)cc2)Oc2ccc(O)cc21 (stereo partly shown) [Example 37]	40 to 65%
CCN(CC)CCOc1ccc(C2Oc3ccc(O)cc3C(C)=C2c2cccc(O)c2)cc1 (stereo not shown) [Example 5]	< 40%
CC1=C(c2cccc(O)c2)C(c2ccc(OCCN3CC[C@H](C)C3)cc2)Oc2ccc(O)cc21 (stereo partly shown) [Example 11]	40 to 65%
CC1=C(c2cccc(O)c2)C(c2ccc(OC[C@@H](C)N3CCCC3)cc2)Oc2ccc(O)cc21 (stereo partly shown) [Example 7]	< 40%

From here, focus on the item given below.
Data request, read-out Emax, for CC1=C(c2cccc(O)c2)C(c2ccc(OCCN3CCCCCC3)cc2)Oc2ccc(O)cc21 (stereo not shown) [Example 17]
40 to 65%

* * *

Would you kindly list DC50 for each of these molecules?
molecular target: ER-α (Homo sapiens); construct: endogenous in cells; host or cells: MCF-7; assay: ER-α in Cell Western Assay (SP1); format: cell-based; settings: MCF-7 cells, SP1 rabbit monoclonal Ab, 4 or 24 hr post compound addition; read-out: ER In-Cell Western Assay (SP1); IC50

Use these answered entries as a reference point.
MOLECULE	DC50
CC1=C(c2cccc(O)c2)C(c2ccc(OCCN3CC[C@H](C)C3)cc2)Oc2ccc(O)cc21 (stereo partly drawn)	≤ 1 nM
CC1=C(c2cccc(O)c2)C(c2ccc(OC[C@H](C)N3CCCCC3)cc2)Oc2ccc(O)cc21 (stereo partly drawn)	≤ 1 nM
CC1=C(c2ccc(S(C)(=O)=O)cc2)C(c2ccc(OC[C@H](C)N3CC[C@@H](C)C3)cc2)Oc2ccc(O)cc21 (stereo partly drawn)	> 1 nM
CC1=C(c2cccc(O)c2)C(c2ccc(N(C)CCO)cc2)Oc2ccc(O)cc21 (stereo not drawn)	> 1 nM
CC1=C(c2cccc(O)c2)C(c2ccc(OCCN3CCC[C@@H](C)C3)cc2)Oc2ccc(O)cc21 (stereo partly drawn)	≤ 1 nM

For every item below, please supply its DC50.
1. CC1=C(c2ccc(F)cc2F)C(c2ccc(OC[C@H](C)N3CC[C@@H](C)C3)cc2)Oc2ccc(O)cc21 (stereo partly drawn)
2. CC1=C(c2cc(O)ccc2F)C(c2ccc(OC[C@H](C)N3CC[C@@H](C)C3)cc2)Oc2ccc(O)cc21 (stereo partly drawn)

["≤ 1 nM", "≤ 1 nM"]

* * *

Would you kindly list DC50 for each of these molecules?
biological target: ER-α (Homo sapiens); construct: endogenous in cells; host or cells: MCF-7; test: ER-α in Cell Western Assay (SP1); assay type: cell-based; conditions: MCF-7 cells, SP1 rabbit monoclonal Ab, 4 or 24 hr post compound addition; read-out: ER In-Cell Western Assay (SP1); IC50

MOLECULE	DC50
CC1=C(c2ccc(F)cc2)[C@H](c2ccc(OC[C@H](C)N3CC[C@@H](C)C3)cc2)Oc2ccc(O)cc21 (single isomer, unassigned) [Example 30a]	≤ 1 nM
CC1=C(c2cccc(O)c2)C(c2ccc(OC[C@H](C)N3CCC3)cc2)Oc2ccc(O)cc21 (stereo partly shown)	≤ 1 nM
CC1=C(c2cccc(O)c2)C(c2ccc(OCCN3CCCCCCC3)cc2)Oc2ccc(O)cc21 (stereo not shown)	≤ 1 nM

From here, focus on the item given below.
API: value(readout=DC50, system=ER-α (Homo sapiens)) for record CC1=C(c2ccc(O)cc2)C(c2ccc(OC[C@H](C)N3CC[C@@H](C)C3)cc2)Oc2ccc(O)cc21 (stereo partly shown)
≤ 1 nM

* * *

Would you kindly list DC50 for each of these compounds?
target: ER-α (Homo sapiens, UniProt P03372); construct: endogenous in cells; host or cells: MCF-7; assay: ER-α In Cell Western Assay (ER1D5); assay type: cell-based; conditions: MCF-7 cells, ER1D5 antibody, 4 or 24 hr post compound addition; read-out: ER In-Cell Western Assay (ER1D5); IC50

Use these answered entries as a reference point.
COMPOUND	DC50
CC1=C(c2cccc(O)c2)C(c2ccc(OCCN3CC[C@H](C)C3)cc2)Oc2ccc(O)cc21 (stereo partly shown)	≤ 1 nM
CC1=C(c2cccc(O)c2)[C@@H](c2ccc(OC[C@H](C)N3CC[C@@H](C)C3)cc2)Oc2ccc(O)cc21 (single isomer, unassigned)	> 1 nM
CC1=C(c2ccc(S(C)(=O)=O)cc2)C(c2ccc(OC[C@H](C)N3CC[C@@H](C)C3)cc2)Oc2ccc(O)cc21 (stereo partly shown)	> 1 nM
CC1=C(c2ccc(Br)cc2)C(c2ccc(OC[C@H](C)N3CC[C@@H](C)C3)cc2)Oc2ccc(O)cc21 (stereo partly shown)	> 1 nM
CC1=C(c2cccc(O)c2)C(c2ccc(OC[C@H](C)N3CCCCCC3)cc2)Oc2ccc(O)cc21 (stereo partly shown)	≤ 1 nM

For every item below, please supply its DC50.
1. CNCCOc1ccc(C2Oc3ccc(O)cc3C(C)=C2c2cccc(O)c2)cc1 (stereo not shown)
2. CC1=C(c2cccc(O)c2)C(c2ccc(OCCN3CCCCC3)cc2)Oc2ccc(O)cc21 (stereo not shown)

1: ≤ 1 nM; 2: ≤ 1 nM

* * *

target: ER-α (Homo sapiens, UniProt P03372); construct: endogenous in cells; host or cells: MCF-7; assay: ER-α in Cell Western Assay (SP1); assay type: cell-based; conditions: MCF-7 cells, SP1 rabbit monoclonal Ab, 4 or 24 hr post compound addition; read-out: ER In-Cell Western Assay (SP1); IC50
Would you kindly list DC50 for each of these compounds?

For every item below, please supply its DC50.
1. CC1=C(c2cccc(O)c2)[C@H](c2ccc(OC[C@H](C)N3CC[C@@H](C)C3)cc2)Oc2ccc(O)cc21 (single isomer, unassigned)
2. CC1=C(c2ccc(C(F)(F)F)c(O)c2)C(c2ccc(OC[C@H](C)N3CC[C@@H](C)C3)cc2)Oc2ccc(O)cc21 (stereo partly drawn)
3. CC1=C(c2cccc(O)c2)C(c2ccc(OC[C@H](C)N3CC[C@@H](F)C3)cc2)Oc2ccc(O)cc21 (stereo partly drawn)

["≤ 1 nM", "> 1 nM", "≤ 1 nM"]

* * *

biological target: ER-α (Homo sapiens); construct: endogenous in cells; host or cells: MCF-7; assay: ER-α in Cell Western Assay (SP1); format: cell-based; settings: MCF7; MCF-7 cells, SP1 rabbit monoclonal Ab, 4 or 24 hr post compound addition; read-out: ER In-Cell Western Assay (SP1); Max Response
ATTRIBUTE MEASURED: Emax

COMPOUND	OBSERVED VALUE
CC1=C(c2cccc(O)c2)C(c2ccc(OC[C@H](C)N3CCC[C@@H]3C)cc2)Oc2ccc(O)cc21 (stereo partly shown) [Example 24]	< 60%

For every item below, please supply its Emax.
1. CC1=C(c2cc(O)cc(F)c2)C(c2ccc(OC[C@H](C)N3CC[C@@H](C)C3)cc2)Oc2ccc(O)cc21 (stereo partly shown) [Example 43]
2. CC1=C(c2cccc(O)c2)C(c2ccc(OC[C@H](C)N3CCCCC3)cc2)Oc2ccc(O)cc21 (stereo partly shown) [Example 1]

≥ 85%
60 to 85%
